# credit: patent US10934310B2

# system-under-test: unphosphorylated-BTK kinase domain (UP-BTK), GST-tagged human BTK (389-659aa) (Homo sapiens (Human), UniProt Q06187)
# Sequence (Q06187 389-659): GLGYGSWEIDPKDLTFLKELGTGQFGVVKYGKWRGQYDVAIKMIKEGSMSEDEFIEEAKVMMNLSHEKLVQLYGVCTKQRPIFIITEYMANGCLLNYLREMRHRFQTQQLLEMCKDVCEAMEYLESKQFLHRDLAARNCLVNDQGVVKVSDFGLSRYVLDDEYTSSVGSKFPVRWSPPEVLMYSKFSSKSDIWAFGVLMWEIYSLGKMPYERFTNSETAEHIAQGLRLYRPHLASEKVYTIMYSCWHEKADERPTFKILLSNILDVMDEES
# protocol: BTK Kinase Lanthascreen Binding Assay
# assay-conditions: Lanthascreen binding, 60 minutes incubation; pIC50 = negative log of the IC50 in molar
value-type: BTK_I_binding pIC50

{"columns": ["compound", "BTK_I_binding pIC50"],
 "data": [
  ["Cc1cc(OC2CCCC2)ncc1N1C(=O)Nc2c(C(=O)N[C@@H]3CCC[C@@H]3N)sc3nccc1c23 (single isomer, unassigned)", 6.82],
  ["C=CC(=O)N[C@H]1CCC[C@H]1NC(=O)c1sc2nccc3c2c1NC(=O)N3c1ccnc(C2CCC2)c1", 7.81],
  ["C=CC(=O)N[C@H]1CCC[C@H]1NC(=O)c1sc2nccc3c2c1NC(=O)N3c1ccc(Oc2cncnc2)cc1", 7.48],
  ["CNCC(=O)N[C@@H]1CCCC[C@@H]1NC(=O)c1sc2nccc3c2c1NC(=O)N3c1ccc(Oc2ccccc2)cc1C (single isomer, unassigned)", 6.74],
  ["C=CC(=O)N[C@H]1CCC[C@H]1NC(=O)c1sc2nccc3c2c1NC(=O)N3c1ccc(Oc2ccc(C)nc2)cc1", 7.79],
  ["C=CC(=O)N[C@H]1CCC[C@H]1NC(=O)c1sc2nccc3c2c1NC(=O)N3c1ccc(Oc2cccnc2)nc1C", 7.37],
  ["CC(=O)N[C@@H]1CC[C@H](NC(=O)c2sc3nccc4c3c2NC(=O)N4c2ccc(OC(C)C)cc2C)C1", 6.21],
  ["C=CC(=O)N[C@H]1CCC[C@H]1NC(=O)c1sc2nccc3c2c1NC(=O)N3c1ccc(Oc2cncnc2)nc1C", 6.66]
]}

###

# system-under-test: unphosphorylated-BTK kinase domain (UP-BTK), GST-tagged human BTK (389-659aa) (Homo sapiens (Human), UniProt Q06187)
# protocol: BTK Kinase Lanthascreen Binding Assay
# assay-conditions: compound, 50 nM Tracer 236, 2 nM anti-GST antibody, 60 minutes; pIC50 = negative log of the IC50 in molar
value-type: BTK_I_binding pIC50

{"columns": ["compound", "endpoint-value"],
 "data": [
  ["C=CC(=O)N[C@@H]1CC[C@@H](NC(=O)c2sc3nccc4c3c2NC(=O)N4c2ccc(Oc3ccccc3)cc2C)C1 [Example 184]", 7.55],
  ["C=CC(=O)N[C@@H]1CCC[C@H]1NC(=O)c1sc2nccc3c2c1NC(=O)N3c1ccc(Oc2ccccc2)cc1C (single isomer, unassigned)", 8.11],
  ["CCC(=O)N[C@@H]1CCCC[C@H]1NC(=O)c1sc2nccc3c2c1NC(=O)N3c1ccc(Oc2ccccc2)cc1C", 6.01],
  ["Cc1cc(Oc2ccccc2)ccc1N1C(=O)Nc2c(C(=O)N[C@H]3CCCC[C@H]3N(C)C)sc3nccc1c23", 6.12],
  ["CCC(=O)N[C@H]1CCC[C@@H]1NC(=O)c1sc2nccc3c2c1NC(=O)N3c1ccc(Oc2ccccc2)cc1C", 6.14],
  ["Cc1cc(Oc2ccccc2)ccc1N1C(=O)Nc2c(C(=O)N[C@H]3CC[C@@H](NC(=O)CN(C)C)C3)sc3nccc1c23 [Example 71]", 7.38],
  ["C=CC(=O)N[C@H]1CCC[C@H](NC(=O)c2sc3nccc4c3c2NC(=O)N4c2ccc(Oc3ccccc3)cc2C)C1 (single isomer, unassigned)", 6.56],
  ["Cc1cc(Oc2ccccc2)ccc1N1C(=O)Nc2c(C(=O)N[C@H]3CC[C@@H](O)CC3)sc3nccc1c23 (single isomer, unassigned) [Example 84]", 6.21],
  ["C=CC(=O)N[C@H]1CCCC[C@H]1NC(=O)c1sc2nccc3c2c1NC(=O)N3c1ccnc(-c2ccccc2)c1", 8.10],
  ["CC(=O)N[C@@H]1CCC[C@H]1NC(=O)c1sc2nccc3c2c1NC(=O)N3c1ccc(Oc2ccccc2)cc1C [Example 11]", 7.24],
  ["CCC(=O)N[C@@H]1CC[C@H](NC(=O)c2sc3nccc4c3c2NC(=O)N4c2ccc(Oc3ccccc3)cc2C)C1 (single isomer, unassigned) [Example 87]", 7.87],
  ["CC(C)(C)OC(=O)N[C@H]1CC[C@H](NC(=O)c2sc3nccc4c3c2NC(=O)N4c2ccc(Oc3ccccc3)cc2)CC1", 6.33],
  ["CC(=O)N[C@H]1CCC[C@@H]1NC(=O)c1sc2nccc3c2c1NC(=O)N3c1ccc(Oc2ccccc2)cc1C [Example 40]", 6.40],
  ["CNCC(=O)N[C@@H]1CCC[C@@H]1NC(=O)c1sc2nccc3c2c1NC(=O)N3c1ccc(Oc2ccccc2)cc1C (single isomer, unassigned)", 6.26],
  ["N[C@H]1CCCC[C@H]1NC(=O)c1sc2nccc3c2c1NC(=O)N3c1cccc(-c2ccccc2)c1", 7.01],
  ["Cc1cc(Oc2ccccc2)ccc1N1C(=O)Nc2c(C(=O)N[C@@H]3CC[C@H](N)C3)sc3nccc1c23 (single isomer, unassigned)", 6.72],
  ["C=CC(=O)N[C@H]1CCCC[C@H]1NC(=O)c1sc2nccc3c2c1NC(=O)N3c1cnc(OC2CCC2)cc1C (single isomer, unassigned) [Example 266]", 6.21],
  ["Cc1cc(Oc2ccccc2)ccc1N1C(=O)Nc2c(C(=O)N[C@@H]3CCCC[C@@H]3N(C)C)sc3nccc1c23 (relative stereo)", 7.31],
  ["Cc1cc(Oc2ccccc2)ccc1N1C(=O)Nc2c(C(=O)N[C@@H]3CCCC[C@@H]3NC(=O)CN)sc3nccc1c23 (single isomer, unassigned)", 7.39],
  ["Cc1cc(Oc2ccccc2)ccc1N1C(=O)Nc2c(C(=O)N[C@H]3CC[C@@H](NC#N)CC3)sc3nccc1c23", 6.77],
  ["C=CC(=O)N[C@H]1CCC[C@H]1NC(=O)c1sc2nccc3c2c1NC(=O)N3c1ccc(Oc2ccccc2)cn1", 8.37],
  ["CO[C@H]1CC[C@H](NC(=O)c2sc3nccc4c3c2NC(=O)N4c2ccc(Oc3ccccc3)cc2C)CC1", 6.99]
]}
